Reference source: the kinase profiling compilation of Christmann-Franck et al. (2016)

Measured residual activity accompanies every entry in the list below.
experimentalTarget: FES (human)
procedureText: radiometric filter-binding kinase assay, Kinase HotSpot
conditionSummary: compound 0.5 µM; ATP 10 µM
Express your answer in %, writing the number without its unit.

Some compounds with recorded residual activity:
O=C1NC(=O)/C(=C\c2ccc3nccnc3c2)S1 : 96.4
COc1ccc(CNC(=O)Nc2ncc([N+](=O)[O-])s2)cc1 : 97.7
Cn1sc(=O)n(Cc2ccccc2)c1=O : 101

I would be grateful if you could share the reported residual activity for COc1cc2ncc(-c3ccccc3)nc2cc1OC .
105

// residual activity lookup, key: CC(C)[C@H](CO)Nc1nc(Nc2cc(N)cc(Cl)c2)c2ncn(C(C)C)c2n1
69.2

GET /values?readout=residual activity&item= CN(C)C[C@H]1CCn2c(c(C3=C(c4cn(C)c5ccccc45)C(=O)NC3=O)c3ccccc32)C1
102

Reported residual activity for O=C1NC(=O)C(c2cn(CCCO)c3ncccc23)=C1c1cnccn1 : what is it?
121

State the recorded residual activity for this entry: O=C(Nc1cccc(Nc2cc(Nc3cccc(C(F)(F)F)c3)ncn2)c1)C1CC1
101

Fill in the blank: the reported residual activity of CCN(CC)CCCCN1c2ccccc2Oc2ccc(Cl)cc21 is ____.
99.8

Which residual activity reading was recorded for the compound Cn1cnc2cc3c(Nc4cccc(Br)c4)ncnc3cc21 ?
101

Any idea what its residual activity is? The compound is COc1ccc(OC)c2c(=S)c3ccccc3[nH]c12
102

###

experimentalTarget: MAPK10 (human)
procedureText: radiometric filter-binding kinase assay, Kinase HotSpot
conditionSummary: compound 0.5 µM; ATP 10 µM
Examples of compounds with documented residual activity follow.
Please give the number followed by its unit.

COc1ccc(CNC(=O)Nc2ncc([N+](=O)[O-])s2)cc1 : 96.1%
O=C1NC(=O)C(c2c[nH]c3ccccc23)=C1c1c[nH]c2ccccc12 : 110%
Nc1nnc2[nH]c3ccccc3nc1-2 : 92.1%
Cn1sc(=O)n(Cc2ccccc2)c1=O : 91.1%
CN([C@@H](Cc1ccc(OS(=O)(=O)c2cccc3cnccc23)cc1)C(=O)N1CCN(c2ccccc2)CC1)S(=O)(=O)c1cccc2cnccc12 : 88.2%

Would you mind telling me what residual activity value was observed for CCn1cnc2c(Nc3cccc(Cl)c3)nc(N[C@@H]3CCCC[C@@H]3N)nc21 ?
98.8%

Item under review: Oc1ccc(Nc2nc(-c3ccc(Cl)cc3)cs2)cc1 . Reported residual activity?
101%

Requested field: residual activity. Item: O=C(Nc1cccc(Nc2cc(Nc3cccc(C(F)(F)F)c3)ncn2)c1)C1CC1
83.4%

###

Entries annotated with measured residual activity
experimentalTarget: DAPK1 (human) (UniProt P53355)
Sequence (P53355 whole entry, looked up): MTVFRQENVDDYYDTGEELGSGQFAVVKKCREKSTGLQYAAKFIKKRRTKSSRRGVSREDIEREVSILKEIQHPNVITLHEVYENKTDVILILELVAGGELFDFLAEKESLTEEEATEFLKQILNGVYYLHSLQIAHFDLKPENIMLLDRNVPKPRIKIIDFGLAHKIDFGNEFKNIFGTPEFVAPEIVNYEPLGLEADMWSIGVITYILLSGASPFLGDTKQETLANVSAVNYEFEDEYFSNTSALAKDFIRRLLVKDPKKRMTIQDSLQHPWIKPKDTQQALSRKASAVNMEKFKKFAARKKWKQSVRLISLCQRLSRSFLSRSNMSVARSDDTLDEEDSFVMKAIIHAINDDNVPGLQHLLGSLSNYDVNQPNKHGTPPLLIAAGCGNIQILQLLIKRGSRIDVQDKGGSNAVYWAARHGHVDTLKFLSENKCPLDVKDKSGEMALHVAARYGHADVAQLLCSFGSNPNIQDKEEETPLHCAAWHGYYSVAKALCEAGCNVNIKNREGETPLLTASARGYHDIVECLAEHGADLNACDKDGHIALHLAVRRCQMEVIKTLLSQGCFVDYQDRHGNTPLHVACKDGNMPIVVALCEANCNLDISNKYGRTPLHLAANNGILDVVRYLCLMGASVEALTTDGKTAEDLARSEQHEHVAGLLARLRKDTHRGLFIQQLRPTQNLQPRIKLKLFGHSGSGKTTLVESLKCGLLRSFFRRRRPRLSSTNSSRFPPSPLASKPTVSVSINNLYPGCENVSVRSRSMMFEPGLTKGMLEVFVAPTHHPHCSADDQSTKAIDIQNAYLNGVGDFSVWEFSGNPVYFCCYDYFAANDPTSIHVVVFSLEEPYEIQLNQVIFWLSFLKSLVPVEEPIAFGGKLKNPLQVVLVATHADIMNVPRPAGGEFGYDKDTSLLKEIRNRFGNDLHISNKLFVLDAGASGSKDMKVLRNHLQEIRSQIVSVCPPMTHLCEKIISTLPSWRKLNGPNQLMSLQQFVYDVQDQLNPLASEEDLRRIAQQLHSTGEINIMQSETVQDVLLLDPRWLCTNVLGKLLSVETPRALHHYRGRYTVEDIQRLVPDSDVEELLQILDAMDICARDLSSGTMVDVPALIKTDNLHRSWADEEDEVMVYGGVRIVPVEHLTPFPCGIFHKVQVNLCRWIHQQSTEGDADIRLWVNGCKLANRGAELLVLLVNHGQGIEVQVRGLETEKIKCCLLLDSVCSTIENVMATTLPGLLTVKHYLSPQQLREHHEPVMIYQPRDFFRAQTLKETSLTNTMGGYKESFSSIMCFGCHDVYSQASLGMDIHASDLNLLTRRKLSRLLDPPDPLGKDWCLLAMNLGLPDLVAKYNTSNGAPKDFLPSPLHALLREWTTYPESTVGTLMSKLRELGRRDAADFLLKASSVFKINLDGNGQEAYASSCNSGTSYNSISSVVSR
procedureText: radiometric filter-binding kinase assay, Kinase HotSpot
conditionSummary: compound 0.5 µM; ATP 10 µM
The reply should contain only the number, in %.

Some solved entries appear below for comparison.
O=C1NC(=O)C(c2c[nH]c3ccccc23)=C1c1c[nH]c2ccccc12 : 79.4
CN([C@@H](Cc1ccc(OS(=O)(=O)c2cccc3cnccc23)cc1)C(=O)N1CCN(c2ccccc2)CC1)S(=O)(=O)c1cccc2cnccc12 : 117
CC(C)[C@H](CO)Nc1nc(Nc2cc(N)cc(Cl)c2)c2ncn(C(C)C)c2n1 : 95.3
CC(=O)O/N=C1\C(=C2\C(=O)Nc3cc(Br)ccc32)Nc2ccccc21 : 86.8

Dear colleague, I am looking for the recorded residual activity of the following compound: Nc1nccc(-c2c(-c3ccc(F)cc3)ncn2C2CCNCC2)n1
88.2

###

experimentalTarget: CSNK1E (human)
procedureText: radiometric filter-binding kinase assay, Kinase HotSpot
conditionSummary: compound 0.5 µM; ATP 10 µM
Parameter threshold = 90%. Response is TRUE when residual activity meets or exceeds it, else FALSE.

Reference set, count: 3
O=C(CCCc1ccc(-c2ccccc2F)cc1)Nc1ccc(O)cc1 : TRUE
COc1cc2ncc(-c3ccccc3)nc2cc1OC : FALSE
Nc1nccc(-c2c(-c3ccc(F)cc3)ncn2C2CCNCC2)n1 : FALSE

Now examine the next entry.
Please indicate if the recorded residual activity for O=C1Nc2ccccc2/C1=C1/Nc2ccccc2/C1=N\OCCC(O)CO (stereo not drawn) meets or exceeds 90%.
FALSE

###

experimentalTarget: TNK2 (human) (UniProt Q07912)
Sequence (Q07912 whole entry, looked up): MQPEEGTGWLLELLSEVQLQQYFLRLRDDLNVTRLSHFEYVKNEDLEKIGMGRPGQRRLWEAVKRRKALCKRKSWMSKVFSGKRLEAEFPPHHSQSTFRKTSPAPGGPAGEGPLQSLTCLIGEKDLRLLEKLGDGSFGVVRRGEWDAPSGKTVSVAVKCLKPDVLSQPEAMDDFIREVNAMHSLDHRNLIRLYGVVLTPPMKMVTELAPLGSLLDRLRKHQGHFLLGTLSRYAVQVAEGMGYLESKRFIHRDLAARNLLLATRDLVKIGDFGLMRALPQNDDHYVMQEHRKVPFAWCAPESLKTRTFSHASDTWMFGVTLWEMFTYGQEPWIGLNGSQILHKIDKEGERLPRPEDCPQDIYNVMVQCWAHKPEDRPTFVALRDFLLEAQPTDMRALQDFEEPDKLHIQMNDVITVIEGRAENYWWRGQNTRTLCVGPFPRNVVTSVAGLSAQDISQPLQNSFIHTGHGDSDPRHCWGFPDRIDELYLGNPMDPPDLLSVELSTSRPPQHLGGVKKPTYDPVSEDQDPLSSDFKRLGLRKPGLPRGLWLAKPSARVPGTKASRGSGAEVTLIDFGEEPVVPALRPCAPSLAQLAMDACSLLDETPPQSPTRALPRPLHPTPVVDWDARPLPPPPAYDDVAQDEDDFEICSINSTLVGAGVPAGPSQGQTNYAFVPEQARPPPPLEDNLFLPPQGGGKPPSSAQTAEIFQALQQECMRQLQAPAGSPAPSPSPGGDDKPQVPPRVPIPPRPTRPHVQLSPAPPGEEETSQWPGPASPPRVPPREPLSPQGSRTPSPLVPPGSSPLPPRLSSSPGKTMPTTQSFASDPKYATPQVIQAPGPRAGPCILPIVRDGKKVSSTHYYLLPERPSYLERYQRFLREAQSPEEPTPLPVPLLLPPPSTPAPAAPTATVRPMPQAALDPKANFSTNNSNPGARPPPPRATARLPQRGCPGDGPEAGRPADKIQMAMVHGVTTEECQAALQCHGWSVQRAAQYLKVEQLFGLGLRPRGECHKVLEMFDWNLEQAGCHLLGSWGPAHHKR
procedureText: radiometric filter-binding kinase assay, Kinase HotSpot
conditionSummary: compound 0.5 µM; ATP 10 µM
Parameter residual activity: see the listing below.
Provide only the numeric value, understood in %.

Check out these entries, answers already filled in.
CN(C)C[C@H]1CCn2c(c(C3=C(c4cn(C)c5ccccc45)C(=O)NC3=O)c3ccccc32)C1 : 96.3
O=C(CCCc1ccc(-c2ccccc2F)cc1)Nc1ccc(O)cc1 : 99.2
O=C1NC(=O)C(c2c[nH]c3ccccc23)=C1c1c[nH]c2ccccc12 : 94.9
Cn1nc2c3c(cccc31)C(=O)c1ccccc1-2 : 83.3
CC(=O)O/N=C1\C(=C2\C(=O)Nc3cc(Br)ccc32)Nc2ccccc21 : 74.7
Nc1nccc(-c2c(-c3ccc(F)cc3)ncn2C2CCNCC2)n1 : 98

Please give the measured residual activity for this compound: O=C1Nc2ccccc2/C1=C1/Nc2ccccc2/C1=N\OCCC(O)CO (stereo unspecified)
4.93

GET /values?readout=residual activity&item= O=C1NC(=O)/C(=C\c2ccc3nccnc3c2)S1
91.4

Fill in: residual activity of COc1cc2ncnc(N3CCN(C(=O)Nc4ccc(Oc5ccccc5)cc4)CC3)c2cc1OC is ___
77.1

What value of measured residual activity is listed for CC(C)c1nn(-c2c(Cl)cccc2Cl)c2nc(Cc3ccc(OCCO)cc3)nc(O)c12 ?
98.9

Look up residual activity: O=C(O)/C=C/c1cc(Br)c(Br)c(Br)c1Br
110

###

experimentalTarget: CSNK2A1 (human)
procedureText: radiometric filter-binding kinase assay, Kinase HotSpot
conditionSummary: compound 0.5 µM; ATP 10 µM
quantity: residual activity (%)
Please reply with the bare figure in % and do not write the unit itself.

Consider the worked cases shown below.
CC(C)c1nn(-c2c(Cl)cccc2Cl)c2nc(Cc3ccc(OCCO)cc3)nc(O)c12 : 88.8
O=C1NC(=O)C(c2cn(CCCO)c3ncccc23)=C1c1cnccn1 : 78.9
CN([C@@H](Cc1ccc(OS(=O)(=O)c2cccc3cnccc23)cc1)C(=O)N1CCN(c2ccccc2)CC1)S(=O)(=O)c1cccc2cnccc12 : 100
CCN(CC)CCCCN1c2ccccc2Oc2ccc(Cl)cc21 : 96.2

Would you kindly look at the next entry?
Quick one: residual activity of CC(C)[C@H](CO)Nc1nc(Nc2cc(N)cc(Cl)c2)c2ncn(C(C)C)c2n1 ?
99.3

###

experimentalTarget: SGK2 (human) (UniProt Q9HBY8)
Sequence (Q9HBY8 whole entry, looked up): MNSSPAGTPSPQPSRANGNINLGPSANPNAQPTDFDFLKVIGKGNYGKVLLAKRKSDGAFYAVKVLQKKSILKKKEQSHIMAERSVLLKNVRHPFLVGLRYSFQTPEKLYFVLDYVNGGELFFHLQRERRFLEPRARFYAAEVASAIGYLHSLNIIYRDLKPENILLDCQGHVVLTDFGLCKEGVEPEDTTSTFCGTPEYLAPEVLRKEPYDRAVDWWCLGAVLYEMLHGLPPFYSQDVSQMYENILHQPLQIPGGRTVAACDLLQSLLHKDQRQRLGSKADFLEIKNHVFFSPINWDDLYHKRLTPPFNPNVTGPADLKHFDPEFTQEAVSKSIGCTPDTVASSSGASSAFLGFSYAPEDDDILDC
procedureText: radiometric filter-binding kinase assay, Kinase HotSpot
conditionSummary: compound 0.5 µM; ATP 10 µM
quantity: residual activity (%)
Reply with just the number (in %).

Example results:
Cn1sc(=O)n(Cc2ccccc2)c1=O : 100
O=C(Nc1cccc(Nc2cc(Nc3cccc(C(F)(F)F)c3)ncn2)c1)C1CC1 : 99
Nc1nnc2[nH]c3ccccc3nc1-2 : 90.3
CN(C)C[C@H]1CCn2c(c(C3=C(c4cn(C)c5ccccc45)C(=O)NC3=O)c3ccccc32)C1 : 71.7
CN([C@@H](Cc1ccc(OS(=O)(=O)c2cccc3cnccc23)cc1)C(=O)N1CCN(c2ccccc2)CC1)S(=O)(=O)c1cccc2cnccc12 : 100

Need residual activity of COc1ccc(OC)c2c(=S)c3ccccc3[nH]c12 , thanks.
96.5

Please give the measured residual activity for this compound: COc1cc2ncc(-c3ccccc3)nc2cc1OC
95.6

# query: residual activity of entry O=C1Cc2c([nH]c3ccc(Br)cc23)-c2ccccc2N1
98.9

Consider the compound shown here: Cn1cnc2cc3c(Nc4cccc(Br)c4)ncnc3cc21 What is its recorded residual activity?
104

So what's the measured residual activity for this one? O=C1Nc2ccccc2/C1=C1\Nc2ccccc2\C1=N/O
91.8

Item under review: O=C1NC(=O)/C(=C\c2ccc3nccnc3c2)S1 . Reported residual activity?
99.3

# residual activity lookup, item Oc1ccc(Nc2nc(-c3ccc(Cl)cc3)cs2)cc1
108

I am curious: what residual activity value has been reported for O=C1NC(=O)C(c2cn(CCCO)c3ncccc23)=C1c1cnccn1 ?
96.9

Would you mind telling me what residual activity value was observed for CC(C)[C@H](CO)Nc1nc(Nc2cc(N)cc(Cl)c2)c2ncn(C(C)C)c2n1 ?
121

# residual activity lookup, item CCN(CC)CCCCN1c2ccccc2Oc2ccc(Cl)cc21
105

Using the record for CCn1cnc2c(Nc3cccc(Cl)c3)nc(N[C@@H]3CCCC[C@@H]3N)nc21 , report its residual activity.
98.2

###

Below is a list of entries, each paired with its recorded residual activity value.
experimentalTarget: TAOK3 (human) (UniProt Q9H2K8)
Sequence (Q9H2K8 whole entry, looked up): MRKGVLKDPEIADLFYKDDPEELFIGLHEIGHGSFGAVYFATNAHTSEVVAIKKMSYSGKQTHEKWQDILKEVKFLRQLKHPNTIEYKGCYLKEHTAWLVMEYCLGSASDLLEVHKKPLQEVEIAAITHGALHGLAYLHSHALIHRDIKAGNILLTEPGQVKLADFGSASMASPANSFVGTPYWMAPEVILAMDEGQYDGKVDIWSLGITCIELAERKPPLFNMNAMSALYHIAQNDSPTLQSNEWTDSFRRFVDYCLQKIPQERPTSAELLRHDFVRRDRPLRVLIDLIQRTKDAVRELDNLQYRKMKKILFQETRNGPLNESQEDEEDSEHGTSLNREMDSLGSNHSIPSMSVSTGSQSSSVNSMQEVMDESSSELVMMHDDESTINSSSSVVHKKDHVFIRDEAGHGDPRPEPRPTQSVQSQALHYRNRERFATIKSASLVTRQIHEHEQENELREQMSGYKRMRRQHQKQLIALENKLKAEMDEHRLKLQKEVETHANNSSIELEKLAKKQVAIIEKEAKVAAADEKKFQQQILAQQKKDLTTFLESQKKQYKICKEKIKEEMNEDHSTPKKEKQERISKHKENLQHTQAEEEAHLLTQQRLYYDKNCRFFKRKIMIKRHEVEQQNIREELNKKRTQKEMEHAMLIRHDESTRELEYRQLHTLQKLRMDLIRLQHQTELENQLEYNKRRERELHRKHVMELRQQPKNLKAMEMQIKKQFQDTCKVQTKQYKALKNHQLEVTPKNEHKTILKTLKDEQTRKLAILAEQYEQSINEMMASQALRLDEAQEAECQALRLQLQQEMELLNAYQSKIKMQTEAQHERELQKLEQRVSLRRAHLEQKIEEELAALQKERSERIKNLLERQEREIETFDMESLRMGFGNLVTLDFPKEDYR
procedureText: radiometric filter-binding kinase assay, Kinase HotSpot
conditionSummary: compound 0.5 µM; ATP 10 µM

// known answers, use as guide
Nc1nccc(-c2c(-c3ccc(F)cc3)ncn2C2CCNCC2)n1 : 95.3%
O=C1Nc2ccccc2/C1=C1/Nc2ccccc2/C1=N\OCCC(O)CO (stereo unspecified) : 55.4%
CC(C)c1nn(-c2c(Cl)cccc2Cl)c2nc(Cc3ccc(OCCO)cc3)nc(O)c12 : 91.3%
O=C(CCCc1ccc(-c2ccccc2F)cc1)Nc1ccc(O)cc1 : 91.4%
Oc1ccc(Nc2nc(-c3ccc(Cl)cc3)cs2)cc1 : 101%

Suppose we examine the molecule O=C1Nc2ccccc2/C1=C1\Nc2ccccc2\C1=N/O ; what residual activity value has been reported?
62.6%

Recorded residual activity for O=C1NC(=O)C(c2c[nH]c3ccccc23)=C1c1c[nH]c2ccccc12 , please?
85.2%

// returns reported residual activity for input CC(=O)O/N=C1\C(=C2\C(=O)Nc3cc(Br)ccc32)Nc2ccccc21
72.4%

Bench note: what residual activity did COc1cc2ncnc(N3CCN(C(=O)Nc4ccc(Oc5ccccc5)cc4)CC3)c2cc1OC show?
95.3%

Name the recorded residual activity for Cn1sc(=O)n(Cc2ccccc2)c1=O .
101%

Need residual activity of O=C1NC(=O)C(c2cn(CCCO)c3ncccc23)=C1c1cnccn1 , thanks.
88.2%
